# experimental.target: chicken gizzard smooth muscle myosin subfragment-1 chemically crosslinked to cardiac or skeletal actin (Gallus gallus)
Could you please mark t for values of IC50 below 1000 nM and f for values at or above it?

Some solved entries appear below for comparison.
Cn1cc(-c2nc(NCCc3cccc(F)c3)c(C(=O)NC[C@H](CO)NC(=O)OC(C)(C)C)cc2F)cn1	f
N#Cc1ccccc1-c1ccc(C(=O)NCC2CCCN(CCO)C2=O)c(NCCc2cccc(F)c2)n1 (centres unmarked)	t

is_below(IC50, 1000 nM) for `N#Cc1ccccc1-c1ccc(C(=O)NCc2cccc(CCN)n2)c(NCCc2cccc(F)c2)n1` ?
t

Criterion: IC50 strictly below 1000 nM. Is it met by `O=C(NCc1cccnc1)c1ccc(-c2cn[nH]c2)nc1NCCc1cccc(F)c1` ?
t

API: query returns whether the compound falls strictly under 1000 nM in IC50. Query: `NCc1ccnc(CNC(=O)c2ccc(-c3ccccc3)nc2NCCc2cccc(F)c2)c1`
f

IC50 strictly < 1000 nM for this compound? `COC(=O)NCCNC(=O)c1ccc(-c2ccccc2C#N)nc1NCCc1cccc(F)c1`
f

---

# experimental.target: chicken gizzard smooth muscle myosin subfragment-1 chemically crosslinked to cardiac or skeletal actin (Gallus gallus, UniProt P10587)
# Sequence (P02607 2-151): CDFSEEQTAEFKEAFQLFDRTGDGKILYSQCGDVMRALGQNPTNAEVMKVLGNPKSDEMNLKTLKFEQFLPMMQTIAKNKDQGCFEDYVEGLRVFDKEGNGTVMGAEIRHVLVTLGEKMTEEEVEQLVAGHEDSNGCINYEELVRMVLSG
# Sequence (P10587 84-789): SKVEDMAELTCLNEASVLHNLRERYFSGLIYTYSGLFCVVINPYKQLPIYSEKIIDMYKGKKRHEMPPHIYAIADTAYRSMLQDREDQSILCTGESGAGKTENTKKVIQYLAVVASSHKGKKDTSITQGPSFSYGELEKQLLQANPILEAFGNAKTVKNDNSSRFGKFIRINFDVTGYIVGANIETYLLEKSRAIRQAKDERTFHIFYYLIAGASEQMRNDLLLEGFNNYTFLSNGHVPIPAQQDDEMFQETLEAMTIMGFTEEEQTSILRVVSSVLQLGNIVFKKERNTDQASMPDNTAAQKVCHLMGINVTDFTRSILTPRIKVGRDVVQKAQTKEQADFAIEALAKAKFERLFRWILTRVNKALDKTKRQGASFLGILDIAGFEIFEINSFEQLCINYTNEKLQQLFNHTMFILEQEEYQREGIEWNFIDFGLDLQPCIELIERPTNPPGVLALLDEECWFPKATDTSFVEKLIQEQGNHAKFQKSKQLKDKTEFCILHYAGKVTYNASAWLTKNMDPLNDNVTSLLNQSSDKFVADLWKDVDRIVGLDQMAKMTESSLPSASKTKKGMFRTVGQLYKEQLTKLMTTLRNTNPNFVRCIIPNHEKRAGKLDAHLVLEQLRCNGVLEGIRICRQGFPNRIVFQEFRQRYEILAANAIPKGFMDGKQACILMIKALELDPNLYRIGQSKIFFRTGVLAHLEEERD
# pIC50 listing for each entry below
A value of pIC50 is the negative decimal logarithm of a concentration given in moles per litre.

CNC(=O)[C@H](CO)NC(=O)c1ccc(-c2ccccc2C#N)nc1NCCc1cccc(F)c1	5.95
O=C(NCc1ccsc1)c1ccc(-c2ccccc2)nc1NCCc1ccccn1	6.17
N#Cc1ccccc1-c1ccc(C(=O)NCCNS(=O)(=O)CCN)c(NCCc2cccc(F)c2)n1	5.81
N#Cc1ccccc1-c1ccc(C(=O)NCC2CCCN2CCN)c(NCCc2cccc(F)c2)n1 (stereo not shown)	6.12
O=C1CNC[C@@H](CNC(=O)c2ccc(-c3cn[nH]c3)nc2NCCc2cccc(F)c2)N1	4.80
O=C(NCc1cccnc1)c1ccc(-c2cccs2)nc1NCCc1ccccn1	6.10

Shifting focus to the molecule that follows.
Tell me the measured pIC50 of `N#Cc1ccccc1-c1ccc(C(=O)N[C@H](CCCCNC(=O)OCc2ccccc2)C(N)=O)c(NCCc2cccc(F)c2)n1` , please.
4.23

---

# experimental.target: chicken gizzard smooth muscle myosin subfragment-1 chemically crosslinked to cardiac or skeletal actin (Gallus gallus, UniProt P10587)
assay.endpoint: pIC50
Please report pIC50 as the negative decimal logarithm of the molar concentration, giving only the number.

N#Cc1ccccc1-c1ccc(C(=O)NC(CCCN)C(N)=O)c(NCCc2cccc(F)c2)n1 (stereo not shown)	6.23
O=C(NCc1cccnc1)c1ccc(-c2cccc(F)c2)nc1NCCc1ccccn1	6.04
CNC(=O)CNC(=O)c1ccc(-c2ccccc2C#N)nc1NCCc1cccc(F)c1	6.99
C[C@H](CNC(=O)c1cc(F)c(-c2cnn(C)c2)nc1NCCc1cccc(F)c1)NC(=O)C(C)(C)N	6.55
Cn1cc(-c2nc(NCCc3cccc(F)c3)c(C(=O)NC[C@H]3CCCN3C(=O)CCCO)cc2F)cn1	6.61

Could you share which pIC50 value was measured for `C[C@H](CNC(=O)c1cc(F)c(-c2cnn(C)c2)nc1NCCc1cccc(F)c1)C(=O)O` ?
5.42

Reported pIC50, compound `C[C@H](CNC(=O)c1cc(F)c(-c2cn[nH]c2)nc1NCCn1cccn1)NC(=O)CN` : ____
5.33

Using the record for `NCCCn1ccc(CNC(=O)c2ccc(-c3cn[nH]c3)nc2NCCc2cccc(F)c2)n1` , report its pIC50.
5.85

Could you tell me which pIC50 is on file for `O=C1CC[C@H](CNC(=O)c2ccc(-c3cn[nH]c3)nc2NCCc2cccc(F)c2)N1` ?
6.92

What does the data say about its pIC50? Entry: `O=C(NCc1cccnc1)c1ccc(-c2cccc(CO)c2)nc1NCCc1cccc(F)c1`
6.55

Report pIC50 for `N#Cc1ccccc1-c1ccc(C(=O)NC[C@H]2CCCCN2C(=O)[C@H](N)CN)c(NCCc2cccc(F)c2)n1` please.
6.79

Quick check: pIC50 of N#Cc1ccccc1-c1ccc(C(=O)NCC2CCCCC(=O)N2CCCN)c(NCCc2cccc(F)c2)n1 (stereo not shown) ?
6.56

I am curious: what pIC50 value has been reported for `N#Cc1ccccc1-c1ccc(C(=O)NC[C@@H]2CNCC(=O)N2)c(NCCc2cccc(F)c2)n1` ?
6.09

Item `COP(=O)(OC)OCC(=O)N1CC[C@@H]1CNC(=O)c1cc(F)c(-c2cnn(C)c2)nc1NCCc1cccc(F)c1` has what recorded pIC50?
6.40

Requested read-out: pIC50. Entry: `N#Cc1ccccc1-c1ccc(C(=O)NCCC(N)=O)c(NCCc2cccc(F)c2)n1`
7.00

So what does the record say about pIC50 for `CS(=O)(=O)N1CC[C@@H]1CNC(=O)c1ccc(-c2ccccc2C#N)nc1NCCc1cccc(F)c1` ?
5.82
